Tested on: four DIPG cell lines
test description: viability of DIPG cell lines treated in vitro with TG02
Assay type: cell-based, human
condition summary: Homo sapiens; range over four DIPG cell lines in vitro; read-out: EC50 range (decreased viability)
pEC50: −log10 of the molar value.
measurement type: pEC50

Fill in pEC50 for record CN1C/C=C/CCOc2cccc(c2)-c2ccnc(n2)Nc2cccc(c2)C1
7.03 to 7.22
